- experimental_system: human EGFR (d746-750/T790M/C797S) (Homo sapiens, UniProt P00533, C797S/DEL746-750/T790M)
- Construct: human EGFR (d746-750/T790M/C797S) (668-end, SignalChem)
- Sequence (P00533 with tags, fused parts or gaps DEL746-750/T790M/C797S): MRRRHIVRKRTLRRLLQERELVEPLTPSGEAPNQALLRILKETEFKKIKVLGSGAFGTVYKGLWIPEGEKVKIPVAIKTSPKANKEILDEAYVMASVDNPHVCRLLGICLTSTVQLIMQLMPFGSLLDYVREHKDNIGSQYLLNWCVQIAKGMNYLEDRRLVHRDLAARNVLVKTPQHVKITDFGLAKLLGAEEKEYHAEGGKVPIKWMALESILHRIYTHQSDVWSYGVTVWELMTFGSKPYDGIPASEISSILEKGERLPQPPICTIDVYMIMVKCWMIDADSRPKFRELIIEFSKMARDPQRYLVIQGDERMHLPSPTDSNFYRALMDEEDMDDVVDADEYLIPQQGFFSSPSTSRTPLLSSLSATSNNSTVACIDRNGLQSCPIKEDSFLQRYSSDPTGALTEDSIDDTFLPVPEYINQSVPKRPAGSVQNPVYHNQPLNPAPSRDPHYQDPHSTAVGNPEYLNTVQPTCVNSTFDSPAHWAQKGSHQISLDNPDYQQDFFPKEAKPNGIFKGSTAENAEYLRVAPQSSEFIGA
- procedure_text: EGFR C797S enzyme inhibition activity (ADP-Glo kinase assay)
- recorded_conditions: purified enzyme 3 ng, ATP 5 μM, 25° C., 1 hour, luminescence; read-out: EGFR DTC Enzyme IC50
recorded_metric: IC50

These recorded examples may help you get a feel for the data.
1. C[C@H]1CCOc2c(cnn2C)-c2nccc(n2)Nc2cc(c(C(=O)O)cn2)N1 : < 50 nM
2. CC(C)Nc1cc(Nc2ccnc(-c3cnn(S(=O)(=O)C4CC4)c3)n2)ncc1C(=O)N[C@@H](C(C)C)C(F)(F)F : 50 to 500 nM
3. C[C@@H]1CCOc2c(cnn2C)-c2nccc(n2)Nc2cc(c(C(=O)NCC#N)cn2)N1 : < 50 nM
4. COC(=O)c1cnc2cc1N[C@@H](C)CCOc1c(cnn1C)-c1nccc(n1)N2 : < 50 nM
5. CC(C)Nc1cc(Nc2ccnc(-c3cnn(S(=O)(=O)C4CC4)c3)n2)ncc1C(=O)NC1CCN(S(C)(=O)=O)C1 (stereo not drawn) : < 50 nM

Return value of IC50 for input CC(C)Nc1cc(Nc2ccnc(-c3cnn(S(=O)(=O)C4CC4)c3)n2)ncc1C(=O)N1CC(CS(C)(=O)=O)C1 , no commentary.
< 50 nM

Tell us which IC50 value is on record for CC(C)Nc1cc(Nc2ccnc(-c3cnn(S(=O)(=O)C4CC4)c3)n2)ncc1C(=O)NCCN1CCOCC1
< 50 nM

Return reported IC50. Input compound: CC(C)Nc1cc(Nc2ccnc(-c3cnn(S(=O)(=O)C4CC4)c3)n2)ncc1C(=O)NCCCC(F)(F)F
< 50 nM

Provide measured IC50 value, entry: CC(C)Nc1cc(Nc2ccnc(-c3cnn(S(=O)(=O)C4CC4)c3)n2)ncc1C(=O)NC1CN(C(=O)OC(C)(C)C)C1
50 to 500 nM

Let me know recorded IC50 for CC(C)Nc1cc(Nc2ccnc(-c3cnn(S(=O)(=O)C4CC4)c3)n2)ncc1C(=O)NCCN1CCCC1 , thanks.
< 50 nM

Quickly give me recorded IC50 for CC(C)Nc1cc(Nc2ccnc(-c3cnn(S(=O)(=O)C4CC4)c3)n2)ncc1C(=O)NCCS(=O)(=O)C(C)C
< 50 nM

State, in one line, measured IC50 of CC(C)Nc1cc(Nc2ccnc(N3CCOCC3)n2)ncc1C(=O)N1CC(CS(C)(=O)=O)C1
< 50 nM

Read off the recorded IC50 for CC(C)Nc1cc(Nc2ccnc(N3CCNC(=O)C3)n2)ncc1C(=O)N1CC(CS(C)(=O)=O)C1
50 to 500 nM

Input CO[C@H]1CCN(c2nccc(Nc3cc(NC(C)C)c(C(=O)N4CC(C#N)C4)cn3)n2)C[C@H]1F (relative stereo) , output reported IC50.
< 50 nM

Respond only with IC50 recorded for CC(C)Nc1cc(Nc2ccnc(-c3cnn(S(=O)(=O)C4CC4)c3)n2)ncc1C(=O)NCCS(=O)(=O)N(C)C
< 50 nM

----------
- experimental_system: human EGFR (d746-750/T790M/C797S) (Homo sapiens, UniProt P00533, C797S/DEL746-750/T790M)
- Construct: human EGFR (d746-750/T790M/C797S) (668-end, SignalChem)
- procedure_text: EGFR C797S enzyme inhibition activity (ADP-Glo kinase assay)
- recorded_conditions: purified enzyme 3 ng, ATP 5 μM, 25° C., 1 hour, luminescence; read-out: EGFR DTC Enzyme IC50
pIC50: −log10 of the molar value.
recorded_metric: pIC50

Before answering, review these 3 worked examples.
1) CC(C)Nc1cc(Nc2ccnc(-c3cnn(S(=O)(=O)C4CC4)c3)n2)ncc1C(=O)N(C)CC#N [Example 28] : 6.30 to 7.30
2) CO[C@H]1CCN(c2nccc(Nc3cc(NC4CCCC4)c(C(=O)N4CC(CS(C)(=O)=O)C4)cn3)n2)C[C@H]1F (relative stereo) [Example 13] : 6.30 to 7.30
3) C[C@H]1CCOc2c(cnn2C)-c2nccc(n2)Nc2cc(c(C(=O)N3CC(CS(C)(=O)=O)C3)cn2)N1 [Example 105] : > 7.30

Give recorded pIC50. CC(C)Nc1cc(Nc2ccnc(-c3cnn(S(=O)(=O)C4CC4)c3)n2)ncc1C(=O)NC1CCN(C(=O)OC(C)(C)C)C1 (stereo not drawn) [Example 47]
6.30 to 7.30

Look up pIC50 of C[C@H]1CCOc2c(cnn2C)-c2nccc(n2)Nc2cc(c(C(=O)NC3CCCC(C(F)(F)F)C3)cn2)N1 (stereo partly drawn) [Example 119] and report it.
> 7.30

Specify reported pIC50 for the compound shown: CC(C)Nc1cc(Nc2ccnc(-c3cnn(S(=O)(=O)C4CC4)c3)n2)ncc1C(=O)NC1CCS(=O)(=O)C1 (stereo not drawn) [Example 36]
> 7.30

Read the entry CC(C)Nc1cc(Nc2ccnc(-c3cnn(S(=O)(=O)C4CC4)c3)n2)ncc1C(=O)NCCCO [Example 57] and write its reported pIC50.
> 7.30

Answer with reported pIC50 of CC(C)Nc1cc(Nc2ccnc(N3CCN(C)CC3)n2)ncc1C(=O)N1CC(CS(C)(=O)=O)C1 [Example 11]
6.30 to 7.30

Determine its reported pIC50: CC(C)Nc1cc(Nc2ccnc(-c3cnn(S(=O)(=O)C4CC4)c3)n2)ncc1C(=O)NCCc1ccccc1 [Example 52]
> 7.30

----------
- experimental_system: human EGFR (d746-750/T790M/C797S) (Homo sapiens, UniProt P00533, C797S/DEL746-750/T790M)
- Construct: human EGFR (d746-750/T790M/C797S) (668-end, SignalChem)
- procedure_text: EGFR C797S enzyme inhibition activity (ADP-Glo kinase assay)
- recorded_conditions: purified enzyme 3 ng, ATP 5 μM, 25° C., 1 hour, luminescence; read-out: EGFR DTC Enzyme IC50
recorded_metric: IC50

1) CC(C)Nc1cc(Nc2ccnc(-c3cnn(S(=O)(=O)C4CC4)c3)n2)ncc1C(=O)NCC#N : < 50 nM
2) CC1CCCOc2c(cnn2C)-c2nccc(n2)Nc2cc(c(C(=O)NCCCC(F)(F)F)cn2)N1 (stereo not drawn) : < 50 nM
3) CC(C)Nc1cc(Nc2ccnc(-c3cnn(S(=O)(=O)C4CC4)c3)n2)ncc1C(=O)NCc1ccc(C#N)cc1 : 50 to 500 nM

Tell us which IC50 value is on record for CC(C)Nc1cc(Nc2ccnc(-c3cnn(S(=O)(=O)C4CC4)c3)n2)ncc1C(=O)N1CC(N(C)C)C1
< 50 nM

----------
- experimental_system: human EGFR (d746-750/T790M/C797S) (Homo sapiens, UniProt P00533, C797S/DEL746-750/T790M)
- Construct: human EGFR (d746-750/T790M/C797S) (668-end, SignalChem)
- procedure_text: EGFR C797S enzyme inhibition activity (ADP-Glo kinase assay)
- recorded_conditions: purified enzyme 3 ng, ATP 5 μM, 25° C., 1 hour, luminescence; read-out: EGFR DTC Enzyme IC50
- Description: <Experimental Example 1> Evaluation of EGFR C797S Enzyme Inhibition Activity The compounds according to the present invention were reacted together with purified human EGFR (d746-750/T790M/C797S) (668-end, SignalChem) enzyme and a specific substrate and evaluated for enzyme inhibitory activity as described below. The reaction buffer consisted of 40 mM Tris-HCl pH 7.4, 20 mM MgCl2, 0.5 mg/ml BSA, and 50 μM DTT, and all reactions of the test substances were performed in reaction buffers. […]
recorded_metric: IC50

1. CC(C)Nc1cc(Nc2ccnc(-c3cnn(S(=O)(=O)C4CC4)c3)n2)ncc1C(=O)N1C[C@H](CS(C)(=O)=O)[C@H]1C : < 50 nM
2. CC(C)Nc1cc(Nc2ccnc(-c3cnn(S(=O)(=O)C4CC4)c3)n2)ncc1C(=O)NC1CN(S(C)(=O)=O)C1 : < 50 nM

Identify measured IC50 associated with Cn1cc(Nc2cc(Nc3ccnc(-c4cnn(S(=O)(=O)C5CC5)c4)n3)ncc2C(=O)N2CC(CS(C)(=O)=O)C2)cn1
50 to 500 nM

Indicate its recorded IC50; the molecule in question is CC(C)Nc1cc(Nc2ccnc(-c3cnn(S(=O)(=O)C4CC4)c3)n2)ncc1C(=O)NC1CCN(S(C)(=O)=O)CC1
< 50 nM

----------
- experimental_system: human EGFR (d746-750/T790M/C797S) (Homo sapiens, UniProt P00533, C797S/DEL746-750/T790M)
- Construct: human EGFR (d746-750/T790M/C797S) (668-end, SignalChem)
- procedure_text: EGFR C797S enzyme inhibition activity (ADP-Glo kinase assay)
- recorded_conditions: purified enzyme 3 ng, ATP 5 μM, 25° C., 1 hour, luminescence; read-out: EGFR DTC Enzyme IC50
recorded_metric: IC50

Below, 3 compounds whose answers are already recorded.
1. CC(C)Nc1cc(Nc2ccnc(-c3cnn(S(=O)(=O)C4CC4)c3)n2)ncc1C(=O)NC[C@H]1CCCN1 [Example 77] : < 50 nM
2. COC(=O)CCNC(=O)c1cnc(Nc2ccnc(-c3cnn(S(=O)(=O)C4CC4)c3)n2)cc1NC(C)C [Example 50] : < 50 nM
3. CC(C)Nc1cc(Nc2ccnc(-c3cnn(S(=O)(=O)C4CC4)c3)n2)ncc1C(=O)NCCC(C)c1ccccc1 (stereo not shown) [Example 54] : 50 to 500 nM

Provide measured IC50 value, entry: CC(C)Nc1cc(Nc2ccnc(-c3cnn(S(=O)(=O)C4CC4)c3)n2)ncc1C(=O)NCCS(C)(=O)=O [Example 35]
< 50 nM
